tested on: RARg:RXRa (NR concentration 270 nM, RXRa partner concentration 90 nM); assay: PBM binding z-score (relative to random genomic background probes); higher = stronger binding; sequences stand for … in GC…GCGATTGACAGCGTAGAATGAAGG
Outcome measure: PBM binding z-score

Entry sequence	Outcome measure	Measured
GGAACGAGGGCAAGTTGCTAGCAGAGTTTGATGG	PBM binding z-score	1.23
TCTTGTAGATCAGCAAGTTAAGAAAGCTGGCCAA	PBM binding z-score	-0.41
CGAATTAGGTCAAGGACAGTGAATCTCCGCACGC	PBM binding z-score	3.94
ACTCCGAGGACAAAGGTCAGAGCTACGCCAGTGA	PBM binding z-score	6.28
CCTGTTAGGTCATGGTCAGCTAATCTACAGTATG	PBM binding z-score	4.05
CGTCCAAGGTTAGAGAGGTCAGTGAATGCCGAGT	PBM binding z-score	3.53
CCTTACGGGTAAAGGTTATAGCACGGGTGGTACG	PBM binding z-score	2.02
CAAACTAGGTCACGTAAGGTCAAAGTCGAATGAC	PBM binding z-score	7.3
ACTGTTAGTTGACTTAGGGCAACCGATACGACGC	PBM binding z-score	1.22
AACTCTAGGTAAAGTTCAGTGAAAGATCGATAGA	PBM binding z-score	1.97
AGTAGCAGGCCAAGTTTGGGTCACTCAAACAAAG	PBM binding z-score	2.3
TTACCAAGGTGAAGGTCTTTGATCCCTCTGTAGA	PBM binding z-score	0.2

###

system: PPARg homodimer (NR concentration 180 nM); test: PBM binding z-score (relative to random genomic background probes); higher = stronger binding; sequences stand for … in GC…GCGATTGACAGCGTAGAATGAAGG
Use 1 (yes) when the recorded PBM binding z-score is no lower than 1; use 0 (no) when it is lower.

Entry sequence	Cat
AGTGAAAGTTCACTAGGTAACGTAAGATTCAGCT	1 (yes)
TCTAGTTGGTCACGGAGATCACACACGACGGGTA	0 (no)
GCTGCTAGATCAGGTTGGTCAGCTAACGGGTACG	0 (no)
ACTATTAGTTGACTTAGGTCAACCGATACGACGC	1 (yes)
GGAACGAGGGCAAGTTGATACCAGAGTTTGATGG	0 (no)
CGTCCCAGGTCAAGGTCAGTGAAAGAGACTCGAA	1 (yes)
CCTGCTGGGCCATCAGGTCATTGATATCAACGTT	0 (no)
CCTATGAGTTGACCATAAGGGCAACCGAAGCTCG	1 (yes)
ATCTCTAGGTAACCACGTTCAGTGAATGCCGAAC	0 (no)
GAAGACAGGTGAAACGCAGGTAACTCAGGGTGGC	0 (no)
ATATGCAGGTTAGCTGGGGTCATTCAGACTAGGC	1 (yes)
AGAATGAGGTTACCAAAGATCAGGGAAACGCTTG	1 (yes)
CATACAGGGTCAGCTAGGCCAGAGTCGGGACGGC	1 (yes)
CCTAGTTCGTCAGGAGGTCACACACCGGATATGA	1 (yes)
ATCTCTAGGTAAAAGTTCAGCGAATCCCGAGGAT	1 (yes)
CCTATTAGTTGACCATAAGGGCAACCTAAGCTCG	1 (yes)
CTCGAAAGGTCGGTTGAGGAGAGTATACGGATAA	0 (no)
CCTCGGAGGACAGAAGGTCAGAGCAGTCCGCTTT	1 (yes)
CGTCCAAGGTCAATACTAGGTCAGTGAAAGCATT	1 (yes)
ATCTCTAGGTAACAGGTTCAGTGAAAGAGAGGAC	1 (yes)
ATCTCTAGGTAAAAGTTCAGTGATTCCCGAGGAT	1 (yes)
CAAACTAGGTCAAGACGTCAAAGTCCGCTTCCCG	1 (yes)
CCAGATAGGTGAGAAGGTAACTCAGCCTCGATTA	1 (yes)
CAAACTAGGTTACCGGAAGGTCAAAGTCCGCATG	1 (yes)
ACTATTAGTTGACTTTGGGCAACCGATACGACGC	0 (no)
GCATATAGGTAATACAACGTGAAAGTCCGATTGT	0 (no)
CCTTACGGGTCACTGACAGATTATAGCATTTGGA	1 (yes)
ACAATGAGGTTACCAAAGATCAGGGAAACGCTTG	0 (no)
TCCGCTAGGTCAACGATGGTCAGCTAATCTGCTA	0 (no)
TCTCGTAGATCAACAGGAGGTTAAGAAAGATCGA	0 (no)
GGAACGAGGGCAAAGTTGATAGTATCTGTCGACG	0 (no)
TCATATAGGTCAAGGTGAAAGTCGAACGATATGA	1 (yes)
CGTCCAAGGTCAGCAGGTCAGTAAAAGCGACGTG	1 (yes)
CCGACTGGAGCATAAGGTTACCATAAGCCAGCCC	0 (no)
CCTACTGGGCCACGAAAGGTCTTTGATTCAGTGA	0 (no)
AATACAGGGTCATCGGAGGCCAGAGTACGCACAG	1 (yes)
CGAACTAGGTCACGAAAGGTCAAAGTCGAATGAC	1 (yes)
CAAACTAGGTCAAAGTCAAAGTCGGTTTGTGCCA	1 (yes)
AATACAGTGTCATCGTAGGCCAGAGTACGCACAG	0 (no)
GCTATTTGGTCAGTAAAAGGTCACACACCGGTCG	1 (yes)
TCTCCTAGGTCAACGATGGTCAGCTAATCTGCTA	1 (yes)
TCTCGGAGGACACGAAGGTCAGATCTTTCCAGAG	1 (yes)
GCAAATAGGTAATACAAGGTGAAAGTCCGATTGT	0 (no)
CGAACTAGGTCAAGGACAATGAATCTCCGCACGC	1 (yes)
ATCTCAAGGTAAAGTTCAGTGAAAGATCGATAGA	1 (yes)
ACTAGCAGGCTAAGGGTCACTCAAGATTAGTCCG	1 (yes)
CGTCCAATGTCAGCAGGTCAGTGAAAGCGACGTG	1 (yes)
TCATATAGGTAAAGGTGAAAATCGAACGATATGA	0 (no)
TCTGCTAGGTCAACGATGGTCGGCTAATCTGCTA	0 (no)
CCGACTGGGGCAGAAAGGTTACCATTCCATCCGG	0 (no)
TTACCGAGGTGAGCTGAGGTCGTTGATCCAACTC	0 (no)
